Hey, just so you know, these numbers are from PubChem BioAssay (NCI).

This section presents compounds with their documented growth values.
# Tested on: HCT-15 colon
# experimental_protocol: NCI-60 one-dose screen, 48 h (100 = growth as untreated, 0 = no growth, -100 = all killed)
# details: 10 µM unless noted
About 83,000 compounds went through this panel and 20% of them were active in at least one assay; those are over-represented in the sample as a whole.

| compound | uom | growth |
| --- | --- | --- |
| C/C(=N/NC(=O)Cn1c2ccccc2c2ccncc21)c1cccs1 | % | 99.8 |
| Cc1ccc(Cn2cc(COc3ccc4c5ccnc(C)c5n(CCCc5ccccc5)c4c3)nn2)cc1 | % | 86.2 |
| O=C(Nc1ccc(-n2cc(-c3ccncc3)c(-c3ccc(O)c(Cl)c3)n2)cc1)c1ccc(Cl)c(Cl)c1 | % | 18.2 |
| O=C(Nc1ccc(-n2ccc3c(NC(=O)c4ccccc4)nccc32)cc1)c1ccc(Cl)c(C(F)(F)F)c1 | % | -32.9 |
| COc1cc(-c2nc3ccccc3s2)ccc1OCc1nc2n(n1)S(=O)(=O)c1ccccc1N2C | % | 91.5 |
| CCOC(=O)C1CN(Cc2ccccc2)C(=O)C1=O (stereo not given) | % | 86.2 |
| CCCCOc1nc2ccc(Cl)cc2cc1/C=C/C(=O)/C=C/c1ccc(OC)cc1 | % | 91.5 |
| OC[C@@H](O)C(O[C@@H]1O[C@H](CO)[C@H](O)[C@H](O)[C@H]1O)[C@H](O)[C@@H](O)CO (stereo not given in full) | % | 98.2 |
| COc1ccccc1C(OC(C)=O)OC(C)=O | % | 103 |
| Cc1cn(C2CC(N=[N+]=[N-])C(COP(=O)(O)OP(=O)(O)OP(=O)(O)O)O2)c(=O)[nH]c1=O (stereo not given) | % | 120 |
| COc1ccc(C2=NN(C(=O)COc3ccc(Cl)cc3)C(O)(c3cc(F)c(Cl)cc3Cl)C2)cc1 (stereo not given) | % | 98.6 |
| COc1ccc(-c2nn(-c3ccc(NC(=O)c4cc(C(F)(F)F)cc(C(F)(F)F)c4)cc3)cc2-c2ccncc2)cc1Cl | % | 46 |
| COc1cccc(C2CC(c3cc(OC)c(OC)c(OC)c3)=NN2)c1 (stereo not given) | % | 67.3 |
| COc1ccc(Cl)cc1NC(=O)c1cc2c(n1C)-c1nc(NC(=O)C(C)C)sc1CC2 | % | 50.7 |
| CCCCCCCCCCCC(=O)OCCNC(=O)C[n+]1ccccc1 | % | 110 |
| COc1cc(/C=C/C(=O)c2c(C)[n+]([O-])c3ccccc3[n+]2[O-])ccc1O | % | 93.5 |
| O=C(O)c1ccc(-n2cc(/C=N/Nc3ccc(Cl)cc3)c(-c3ccc(F)c(F)c3)n2)cc1 | % | 52.1 |
| COc1cc(Nc2ncccc2C(=O)Nc2nc3ccc(F)cc3s2)cc(OC)c1OC | % | 76.2 |
| CC(=O)Nc1ccc(OC(=O)c2ccccc2O)cc1 | % | 107 |
| CCOC(=O)C1=C(N)Oc2cc(OC)ccc2C1c1ccc(F)c(F)c1 (stereo not given) | % | 22.3 |

* * *

# Test system: NCI-H322M lung
# experimental_protocol: NCI-60 one-dose screen, 48 h
# details: 10 µM unless noted
This is part of a sample that, as a whole, favours compounds with a hit. Of some 83,000 tested, about 20% had one in any assay. Active and inactive are the calls of the source. The calls were made as follows: active = growth percent below 10; inactive = the rest.
Labels: active, inactive

| molecule | cat |
| --- | --- |
| O=S(=O)(O)c1ccc(F)cc1 | inactive |
| COc1ccc(/C=C2\CS(=O)(=O)C/C(=C\c3ccc(OC)cc3)C2=O)cc1 | inactive |
| COc1cc(/C=C/C(=O)c2c(C)[n+]([O-])c3ccccc3[n+]2[O-])ccc1O | inactive |
| O=c1c(-c2ccc3c(c2)OCO3)coc2c(CO)c(O)ccc12 | inactive |
| Nc1nc(=S)ss1 | inactive |
| O=C(Nc1ccc(-n2ccc3c(NC(=O)c4ccccc4)nccc32)cc1)c1cccc(C(F)(F)F)c1 | inactive |
| CCC1S/C(=N\N=C(/C)c2ccco2)N(c2ccccc2)C1=O (stereo not given) | inactive |
| CC(=O)c1cc2c(c(O)c1C)C(=O)C(=O)c1c(O)cccc1-2 | active |
| Fc1ccc(/C=N/n2c(-c3cc(Cl)cc(Cl)c3Cl)nn(CNc3ccc(Cl)nn3)c2=S)cc1 | inactive |
| C=C1C(=O)O[C@H]2[C@H]1CC/C(COC(=O)c1ccccc1)=C\CC[C@@]1(C)O[C@@H]21 | inactive |
